# target desc: calmodulin (CaM) (Homo sapiens, UniProt P0DP25)
# method description: X-ray crystal structure
endpoint label: EC50 (µM)

molecule="COc1ccc(S(=O)(=O)N(CCO)c2ccccc2CN(C)C/C=C/c2ccc(Cl)cc2)cc1 [KN93]" endpoint_label=EC50 readout_number=5.1

Reference for the values: paper PMC6708471
